- Tested on: PC-3 prostate
- protocolDetails: NCI tumour cell line growth inhibition, 48 h
experimentalEndpoint: TGI

* Cn1cc(-c2csc(-c3c[nH]c4ccc(Br)cc34)n2)c2cnccc21 | 4.15 µM
* Oc1ccc2ccccc2c1N=Nc1ccc(Br)cc1 | > 100 µM
* O=C(O)CCSC(CC1(c2ccc(Cl)cc2)NC(=O)CCS1)c1ccccc1 (configuration not stated) | 37.3 µM
* CC(C)(C)OC/C=C(/CO)[C@@H]1C=C[C@H](O)C1 | > 100 µM
* CC(=O)N(C)CCc1c[nH]c2ccccc12 | > 100 µM
* O=[P@@]1(c2ccccc2)O[C@H](COCc2ccccc2)[C@@H](OCc2ccccc2)[C@H](OCc2ccccc2)[C@H]1NCc1ccccc1 | > 100 µM
* O=C1NC(N/N=C\C(O)C(O)C(O)C(O)CO)=N/C1=C/c1ccc(Cl)cc1 (configuration not stated) | > 100 µM
* COc1ccc(Cn2c(N)c(S(=O)(=O)c3ccc(Cl)cc3)c3nc(C#N)c(C#N)nc32)cc1 | > 50 µM
* CSc1ccccc1C#C/C=C\C#Cc1ccccc1N | > 100 µM
* COc1ccc(-c2nsc3c2NC(=O)CC3c2cccc(OC)c2)cc1 (configuration not stated) | > 100 µM
* C[C@H](Nc1cc(Cl)nc2c1cnn2[C@@H]1O[C@H](COP(=O)(O)CP(=O)(O)O)[C@@H](O)[C@H]1O)c1ccccc1F | > 100 µM
* O=c1c2ncn(C3CCCO3)c2n(-c2ccccc2)c(=S)n1-c1ccccc1 (configuration not stated) | > 100 µM

###

- Test system: SK-OV-3 ovarian
- protocolDetails: NCI tumour cell line growth inhibition, 48 h
Where a SMILES comes first, the peptide text is derived from it. The star is where a group is joined. Cbz = O=C(OCc1ccccc1)*
experimentalEndpoint: TGI

• C[C@@]12CCC[C@@](C)(C(=O)O)C1CC[C@]13CC(=O)[C@](CO)(C1)[C@@H](O)CC32 (stereo not given in full) = > 100 µM
• COc1cc(/C=C/C(=O)c2cccc(-n3cc(-c4ccc(Cl)cc4)[nH]c3=O)c2)ccc1O = > 30.2 µM
• Nc1ccn([C@H]2CO[C@@H](CO)[C@@H]2O)c(=O)n1 = > 100 µM
• CC(NC(=O)C(NC(=O)OCc1ccccc1)C(C)C)C(=O)NCC(=O)O (stereo not drawn) (Cbz-Val-Ala-Gly-OH; configuration not given here) = > 100 µM
• Cn1c(=O)c(Oc2ccc(F)cc2)cc2cnc(NC3CCOCC3)nc21 = > 25 µM

###

- System: COLO 205 colon
- protocolDetails: NCI tumour cell line growth inhibition, 48 h
Where a SMILES comes first, the peptide text is derived from it. The star is where a group is joined. Cbz = O=C(OCc1ccccc1)*
experimentalEndpoint: TGI

* O=[N+]([O-])c1cccc2ccc(N/N=C/c3ccccc3O)nc12 | > 19.8 µM
* CC(NC(=O)C(NC(=O)OCc1ccccc1)C(C)C)C(=O)NCC(=O)O (stereo not drawn) (Cbz-Val-Ala-Gly-OH; configuration not given here) | > 100 µM
* COC(=O)c1ccc2c(c1)/C(=C\c1cc(Br)c(O)c(Br)c1)C(=O)N2 | > 25 µM
* CN(C)c1ccc(N=Nc2ccccn2)c(O)c1 | > 34.8 µM
* CCOC(=O)/C(=C/c1ccc(N(C)C)cc1)N(CC)CC | > 100 µM

###

- System: HL-60(TB) leukemia
- protocolDetails: NCI tumour cell line growth inhibition, 48 h
experimentalEndpoint: TGI

• Cc1nn(C(=O)CC(=O)Nc2ccc(Cl)cc2)c(C)c1N=Nc1ccccc1C(=O)O = > 100 µM
• Nc1c(C(=O)c2ccccc2)cnn1-c1ccc(F)cc1 = > 25 µM
• O=[N+]([O-])c1cccc2ccc(N/N=C/c3ccccc3O)nc12 = > 100 µM
• COc1cc(/C=C/C(=O)c2cccc(-n3cc(-c4ccc(Cl)cc4)[nH]c3=O)c2)ccc1O = > 24.3 µM
• CN(C)c1ncnc2c1ncn2CCn1cnc2c(N(C)C)ncnc21 = > 100 µM
• COC1(OC)CCCc2c1no[n+]2[O-] = > 100 µM
• CCOc1nnnc2nc[nH]c12 = > 100 µM
• NCCCn1c2c(c3ccc([N+](=O)[O-])cc3c1=O)C(=O)c1ccccc1-2 = > 19.3 µM
• CC12CCC3c4ccc(O)cc4CCC3C1C/C(=N\O)C2O (centres undefined) = > 100 µM
• Oc1ccc2ccccc2c1N=Nc1ccc(Br)cc1 = > 100 µM
• CCOC(=O)/C=C(/C(=O)OCC)n1cnc2c(=O)[nH]c(NC(C)=O)nc21 = > 100 µM
• CC(=O)OCC1OC(OC2CC3C(C)(C)C(O)CC[C@]3(C)C3CCC45CC4(CCC5[C@@H](C)CC(O)C(O)C(C)(C)O)[C@]23C)C(O)C(O)C1O (some centres undefined) = > 10 µM
• C=C1CC/C=C(\C)CCC[C@H](C)[C@@H](O)[C@@H]2OC(=O)C(=C)[C@@H]2C[C@H]1O = > 100 µM
• C=CCc1ccc(O)c(-c2ccc(O)c(CC=C)c2)c1 = > 52.3 µM
• Cc1cc2c(cc1C(=O)c1ccc(N)cc1)OCO2 = > 100 µM
• CN(CCN(C)C(=O)CCn1cc(F)c(=O)[nH]c1=O)C(=O)CCn1cc(F)c(=O)[nH]c1=O = > 100 µM
• COc1ccc(N=NC(=O)NC(CC(C)C)C(=O)NC(C)C(=O)O)cc1 (centres undefined) = > 100 µM
• C[Si](C)(C)/C(Br)=C\CCN1C(=O)CCC1=O = > 100 µM
• CCOC(=O)Cc1ccc(Nc2nc3ccccc3nc2C(=O)OCC)cc1 = > 100 µM
• COc1ccc(C(C#N)NNC(=O)Cc2ccccc2)cc1OC (centres undefined) = > 100 µM
• Cc1cc(/N=C/c2ccc(F)cc2)n(-c2ccccc2)n1 = > 100 µM
• CC(C)OC(=O)[C@H](C)NP(=O)(OC[C@H]1O[C@@H](n2ccc(=O)[nH]c2=O)[C@](C)(F)[C@@H]1O)Oc1ccccc1 (some centres undefined) = > 100 µM
• COc1ccc(/C=C(\C(C)=O)C(=O)Nc2ccccc2)cc1 = > 100 µM
• [N-]=[N+]=N/C1=C/CCCCC(=O)C1 = > 100 µM

###

- System: NCI-H460 lung
- protocolDetails: NCI tumour cell line growth inhibition, 48 h
We begin with a simple list: items and their reported TGI.
experimentalEndpoint: TGI (µM)

- C=C1CC/C=C(\C)CCC[C@H](C)[C@@H](O)[C@@H]2OC(=O)C(=C)[C@@H]2C[C@H]1O: 27.1
- CC1=C(/C=C/C(C)=C/C=C/C(C)=C/C(=O)OC2CC(n3cc(F)c(=O)[nH]c3=O)OC2CO)C(C)(C)CCC1 (configuration not stated): 15.3
- Cn1cc(-c2csc(-c3c[nH]c4ccc(Br)cc34)n2)c2cnccc21: 3.74
- COc1cccc(C2c3cc4c(cc3OC(C)(N3CCCC3)C2C)OCO4)c1 (configuration not stated): 26.4
- C=COC(=O)N[C@H]1CCc2cc(OC)c(OC)c(OC)c2-c2ccc(SC)c(=O)cc21: 0.991
- COc1ccc(-c2cc(/C=C/C(=O)c3ccc(OC)c(OC)c3)[nH]n2)cc1: 4.34
- CC(C)C(C/C=C1\CC(CO)(COC(=O)C(C)(C)C)OC1=O)C(C)C (configuration not stated): 31
- N#Cc1c(-c2ccc(Cl)cc2)c(C#N)c(=O)n(NS(=O)(=O)c2ccccc2)c1O: 55
- O=C1c2ccccc2C(=O)c2c1nc1ccccc1c2-c1cncc(-c2c3c(nc4ccccc24)C(=O)c2ccccc2C3=O)c1: 10
- O=C(O)CCSC(CC1(c2ccc(Cl)cc2)NC(=O)CCS1)c1ccccc1 (configuration not stated): 64.7
- COC(=O)/C=C\C(C#N)(C#N)N=Cc1cc(Br)cs1: 40.7
- CC1C=CN(N(C)C)C2=C1C(=O)c1cnccc1C2=O (configuration not stated): 0.389

###

- Test system: SF-539 CNS
- protocolDetails: NCI tumour cell line growth inhibition, 48 h
We begin with a simple list: items and their reported TGI.
experimentalEndpoint: TGI

- COc1ccc(-c2cc3ccccc3oc2=O)cc1OC: > 100 µM
- CCOC(=O)NNC(=O)NCCCCNC(=O)NNC(=O)OCC: > 100 µM
- CCOc1nnnc2nc[nH]c12: > 100 µM

###

- System: OVCAR-5 ovarian
- protocolDetails: NCI tumour cell line growth inhibition, 48 h
We begin with a simple list: items and their reported TGI.
experimentalEndpoint: TGI

* CC(C)(C)[Si](C)(C)OC1C(=O)C[C@H]2CCCC[C@@H]12 (stereo not given in full) | > 100 µM
* N#Cc1c(-c2ccc(Cl)cc2)c(C#N)c(=O)n(NS(=O)(=O)c2ccccc2)c1O | > 100 µM
* Clc1nc(Cl)nc(Nc2cccc3ccccc23)n1 | > 100 µM
* C=CCN1CCC23c4c5ccc(O)c4OC2C(=NN=C2CCC4(O)C6Cc7ccc(O)c8c7C4(CCN6CC=C)C2O8)CCC3(O)C1C5 (stereo not given) | > 100 µM
* COC(=O)c1nsc(OC)c1Cl | > 100 µM
* COc1cc2c3c(c1OC)-c1cc4c(cc1CC3(C#N)N(C(=O)c1ccccc1)CC2)OCO4 (stereo not given) | > 56.2 µM
* O=S(=O)(Nc1ccc(Cl)cc1Cl)c1ccc(-c2cnc(C3CC3)o2)cc1 | > 100 µM
* O=C(CSc1c2ccccc2nc2ccccc12)Nc1ccccc1-c1ccccc1NC(=O)CSc1c2ccccc2nc2ccccc12 | > 100 µM
* COc1ccc(OC)c(/C=C(/C#N)c2ccccc2)c1 | > 100 µM
* O=C(NNC(=O)c1ccccc1O)c1cccc(Br)c1 | > 100 µM
* O=C1c2ccccc2C(=O)c2c1nc1ccccc1c2-c1cncc(-c2c3c(nc4ccccc24)C(=O)c2ccccc2C3=O)c1 | > 100 µM
* COC(=O)C1=C(C(=O)OC)C2=S(SC3=C2CCCC3)S1 (stereo not given) | 93.6 µM
* Cc1ccc(Nc2oc(-c3ccccc3)nc2[P+](c2ccccc2)(c2ccccc2)c2ccccc2)cc1 | 4.38 µM
* COc1cccc2c1C(=O)c1c(O)c3c(c(O)c1C2=O)C[C@@](O)(/C(C)=N/NC(=O)c1ccc(Cl)cc1)C[C@@H]3OC1CC(N)C(O)C(C)O1 (stereo not given in full) | 3.81 µM
* COC(=O)c1s/c(=N\C(=S)N(C)C)n(-c2ccc(Cl)cc2)c1C(=O)OC | > 100 µM
